kon: recorded values
Biological target: T1, soluble FGFR4 receptor protein (human, UniProt P22455 144-369)
T1 sequence: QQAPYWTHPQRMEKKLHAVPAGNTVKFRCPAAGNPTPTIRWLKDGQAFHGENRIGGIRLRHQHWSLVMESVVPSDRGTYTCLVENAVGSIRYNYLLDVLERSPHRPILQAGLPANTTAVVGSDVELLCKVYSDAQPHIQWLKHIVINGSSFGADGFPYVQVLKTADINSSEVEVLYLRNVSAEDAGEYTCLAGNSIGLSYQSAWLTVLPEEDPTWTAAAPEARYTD
Experiment: BLI Octet RED96, antibody on anti-hIgG Fc tip
Give the number; M⁻¹ s⁻¹ is assumed, so skip it.

Worked examples follow.
binder="Vk7 combined with the VH of Ab15 (antibody, V domains shown, captured on anti-human IgG Fc tips) VH: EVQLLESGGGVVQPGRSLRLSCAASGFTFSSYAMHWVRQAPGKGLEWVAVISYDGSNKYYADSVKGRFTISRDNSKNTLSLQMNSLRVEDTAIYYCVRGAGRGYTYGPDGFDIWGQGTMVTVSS VL: DIVMTQSPLSLPVTPGEPASISCKSSQSLLHSDGKTYLYWYLQKPGQPPQLLIYELSNRFSGVPDRFSGSGSGTDFTLKISRVEAEDVGVYYCMQYIEAPLTFGGGTKVEIK" assay_metric=kon readout_value=121000
binder="Vk12 combined with the VH of Ab15 (antibody, V domains shown, captured on anti-human IgG Fc tips) VH: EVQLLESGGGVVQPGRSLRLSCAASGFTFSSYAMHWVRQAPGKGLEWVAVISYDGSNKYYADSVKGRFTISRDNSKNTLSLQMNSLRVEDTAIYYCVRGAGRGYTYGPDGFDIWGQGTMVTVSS VL: DIVMTQSPLSLPVTPGEPASISCTSSRSLLHSDGKTYVYWYLQKPGQSPQLLIYELSNRFSGVPDRFSGSGSGTDFTLKISRVEAEDVGVYYCMQYIEAPLTFGGGTKVEIK" assay_metric=kon readout_value=132000
binder="Vk2 combined with the VH of Ab15 (antibody, V domains shown, captured on anti-human IgG Fc tips) VH: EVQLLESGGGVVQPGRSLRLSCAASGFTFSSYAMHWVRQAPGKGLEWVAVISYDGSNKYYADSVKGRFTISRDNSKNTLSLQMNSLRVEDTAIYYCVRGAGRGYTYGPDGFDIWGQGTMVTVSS VL: DIVMTQTPLSLSVTPGQPASISCTSSRSLLHSDGKTYVYWYLQKPGQPPQLLIYELSNRFSGVPDRFSGSGSRTDFTLKISRVEAEDVGVYYCMQYIEAPLTFGGGTKVEIK" assay_metric=kon readout_value=126000

Turning now to a further binder:
Ask: Fill in the blank: the reported kon of Vk5 combined with the VH of Ab15 (antibody, V domains shown, captured on anti-human IgG Fc tips) VH: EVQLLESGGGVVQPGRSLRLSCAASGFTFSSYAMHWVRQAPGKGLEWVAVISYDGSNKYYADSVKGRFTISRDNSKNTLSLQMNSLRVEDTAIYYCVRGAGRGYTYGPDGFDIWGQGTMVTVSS VL: DIVMTQTPLSLSVTPGQPASISCRSSRSLLHSDGKTYVYWYLQKPGQPPQLLIYELSNRFSGVPDRFSGSGSGTDFTLKISRVEAEDVGVYYCMQYIEAPLTFGGGTKVEIK is ____.
Reply: 124000
